- target: Prostaglandin G/H synthase 2 (Homo sapiens, UniProt P35354)
- Sequence (P35354 whole entry): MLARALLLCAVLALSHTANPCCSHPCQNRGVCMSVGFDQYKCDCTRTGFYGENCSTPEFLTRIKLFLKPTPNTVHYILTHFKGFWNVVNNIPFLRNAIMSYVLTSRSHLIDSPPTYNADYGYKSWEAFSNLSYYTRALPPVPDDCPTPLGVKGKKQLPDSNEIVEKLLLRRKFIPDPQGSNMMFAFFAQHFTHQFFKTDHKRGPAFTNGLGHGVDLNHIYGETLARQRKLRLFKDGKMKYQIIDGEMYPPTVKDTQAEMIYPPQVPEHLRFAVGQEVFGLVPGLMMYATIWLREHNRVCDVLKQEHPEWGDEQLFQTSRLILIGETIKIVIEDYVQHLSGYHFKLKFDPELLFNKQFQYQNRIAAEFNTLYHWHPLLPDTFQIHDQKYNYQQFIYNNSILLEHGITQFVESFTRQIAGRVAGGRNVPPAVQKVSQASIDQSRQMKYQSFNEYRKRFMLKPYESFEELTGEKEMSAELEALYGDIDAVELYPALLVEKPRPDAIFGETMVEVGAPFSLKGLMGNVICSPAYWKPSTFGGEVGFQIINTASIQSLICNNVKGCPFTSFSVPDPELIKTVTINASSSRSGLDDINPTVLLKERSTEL
- protocol.details: Inhibition of human recombinant COX2 assessed as reduction in PGH2-derived PGF2alpha using arachidonic acid as substrate preincubated for 10 mins followed by substrate addition measured after 2 mins by enzyme immunoassay
Residues, ends and D or L forms follow the SMILES beside them. *: point of attachment. Cbz = O=C(OCc1ccccc1)*
# label = true if IC50 < 0.4 µM else false

CC(C)C[C@H](NC(=O)[C@H](C)NC(=O)[C@@H](NC(=O)CNC(=O)OCc1ccccc1)C(C)C)C(=O)O (Cbz-GVAL-OH) = true

Prompt: Is it true that IC50 reported for CC(C)[C@H](NC(=O)OCc1ccccc1)C(=O)NCC(=O)O (Cbz-Val-Gly-OH) is less than 0.4 µM?
Response: false

Prompt: Is it true that IC50 reported for COC(=O)[C@H](CC(C)C)NC(=O)[C@H](C)NC(=O)[C@@H](NC(=O)CNC(=O)OCc1ccccc1)C(C)C (Cbz-GVAL-OMe) is less than 0.4 µM?
Response: false

Prompt: Is it true that IC50 reported for CC(C)C[C@H](NC(=O)[C@H](Cc1ccccc1)NC(=O)CNC(=O)CNC(=O)OCc1ccccc1)C(=O)O (Cbz-GGFL-OH) is less than 0.4 µM?
Response: false

Prompt: Is it true that IC50 reported for CC(C)[C@H](NC(=O)[C@H](C)NC(=O)CN)C(=O)O (H-Gly-Ala-Val-OH) is less than 0.4 µM?
Response: true

Prompt: Is it true that IC50 reported for CC(C)C[C@H](NC(=O)CNC(=O)[C@@H](NC(=O)OCc1ccccc1)C(C)C)C(=O)O (Cbz-Val-Gly-Leu-OH) is less than 0.4 µM?
Response: false

Prompt: Is it true that IC50 reported for COC(=O)[C@H](CC(C)C)NC(=O)[C@H](Cc1ccccc1)NC(=O)CNC(=O)CNC(=O)OCc1ccccc1 (Cbz-GGFL-OMe) is less than 0.4 µM?
Response: false

Prompt: Is it true that IC50 reported for CC(C)C[C@H](NC(=O)[C@@H](NC(=O)[C@H](C)NC(=O)CNC(=O)OCc1ccccc1)C(C)C)C(=O)O (Cbz-GAVL-OH) is less than 0.4 µM?
Response: false

Prompt: Is it true that IC50 reported for COC(=O)[C@H](CC(C)C)NC(=O)CNC(=O)[C@@H](N)C(C)C (H-Val-Gly-Leu-OMe) is less than 0.4 µM?
Response: false

Prompt: Is it true that IC50 reported for CC(C)C[C@H](NC(=O)CNC(=O)[C@@H](NC(=O)OCc1ccccc1)C(C)C)C(=O)N[C@@H](C)C(=O)O (Cbz-VGLA-OH) is less than 0.4 µM?
Response: true

Prompt: Is it true that IC50 reported for COC(=O)[C@@H](NC(=O)[C@H](C)NC(=O)CNC(=O)OCc1ccccc1)C(C)C (Cbz-Gly-Ala-Val-OMe) is less than 0.4 µM?
Response: true

Prompt: Is it true that IC50 reported for CC(C)[C@H](NC(=O)[C@H](C)NC(=O)CNC(=O)OCc1ccccc1)C(=O)O (Cbz-Gly-Ala-Val-OH) is less than 0.4 µM?
Response: false

Prompt: Is it true that IC50 reported for COC(=O)CNC(=O)[C@@H](NC(=O)OCc1ccccc1)C(C)C (Cbz-Val-Gly-OMe) is less than 0.4 µM?
Response: false

Prompt: Is it true that IC50 reported for COC(=O)[C@@H](NC(=O)[C@H](C)NC(=O)CN)C(C)C (H-Gly-Ala-Val-OMe) is less than 0.4 µM?
Response: false

FYI, the data here is from ChEMBL document CHEMBL3808358.
